B1: library; a variant is named by its letters at N, in order (parent)
chain: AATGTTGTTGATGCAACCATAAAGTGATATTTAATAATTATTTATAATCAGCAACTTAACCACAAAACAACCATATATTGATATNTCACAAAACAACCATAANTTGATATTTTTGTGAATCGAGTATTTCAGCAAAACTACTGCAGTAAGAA

# Variants of: B1
# TEST_SUMMARY: relative integration efficiency (T-LR orientation) vs wild-type transposon end (log2 (normalized fold change)); transposon end mutated: left end; higher = more efficient transposition
# MEASUREMENT_CONTEXT: with VchCAST RNA-guided transposition machinery (E. coli BL21(DE3) host, lacZ target)
Rule: relative integration efficiency (log2) under -0.6 gives 0, otherwise 1.

INSERT INTO measurements (variant_label, group) VALUES
  ('TA G24A T30A T76A A77G C87T T104G T113A', 1),
  ('CG T9G G10T', 1),
  ('CG C98A A99C T100G A101C', 0),
  ('CG A44T T45A A46T A47T', 1),
  ('CG A66C C68A A69C A70C C71A C72T A77T T78G T79A G80T A83C T86A C87A', 0),
  ('CG A67C C68A', 1),
  ('TA A16C G24T T30A T76A A77G C87T A96C T110A T113A', 1),
  ('CG A65C', 1),
  ('CG C18T', 1),
  ('CG C121A A123G G124A T129C G132A A134C A135T A136T A137C C138A C141G G143T C144T', 1),
  ('CG T30C', 1),
  ('CG A59T C60G', 1),
  ('CG A81C T82G', 0),
  ('CG T43G A44C A46G T48A C49G A50C C52A A53G T56A T57C A58C', 0),
  ('CG G26C G80C G106C', 0),
  ('CG A33T A34T T35A A36T', 1),
  ('CG A65C A66C A67C C68A', 0),
  ('TA A16C G24T T30A T76A T78A T84A C87A T104G T113A', 1),
  ('CG C98A A99C', 0),
  ('CG A59C C60A', 1),
  ('CG T108C', 1),
  ('TA A23G G24T A33T A70C T76A T86G A96C T112G T113C', 1),
  ('CG G24C', 1),
  ('CG A95G', 0),
  ('CG T12A G13C', 1),
  ('CG T25A', 1),
  ('CG T20G A21C', 0),
  ('CG T112A', 1),
  ('CG T120G C121A G122T A123C G124T T125G', 1),
  ('TA A16C G24T T30A A70C T76A T86G T104A T110A T113A', 0),
  ('CG G13T', 0),
  ('CG A88G', 1),
  ('CG T3A', 1),
  ('CG C17G C71G C97G', 0),
  ('CG T9C', 1),
  ('CG T30G T31G', 0),
  ('CG T74A', 1),
  ('CG A69C A70C C71A C72A', 0),
  ('CG A21C A22C', 0),
  ('CG A75C', 1),
  ('CG A73C', 0),
  ('TG A22T G24T T31C A33C T76A A77G C87T', 1),
  ('CG G24T', 1),
  ('CG A83G', 1),
  ('CG A47C T48G C49A A50C', 0),
  ('CG C52G A53T', 1),
  ('CG G7A', 1),
  ('CG G24T T25G G26T A27C', 0),
  ('CG T48G C49A A50C G51T', 0),
  ('CG A21T A75T A101T', 0),
  ('TA A16C G24T T32G A33C T76A T78A T84A C87A T104A T110A T113A', 0),
  ('CG C94T', 0),
  ('CG A16C', 1),
  ('CG G26T A27C', 0),
  ('CG A22T G24T T31C A33C', 1),
  ('CT T104G T105G G106T', 0),
  ('CA A96C T112G T113C', 1),
  ('TG A23G G24T A33T A70C T76A T86G', 1),
  ('TA A16C G24T T30A A70C T76A T84A C87A A96C T112G T113C', 1),
  ('TA A16C G24T T30A A70C T76A T86G A102T T111C T113C', 1),
  ('TA A22T G24T T31C A33C A70C T76A T86G A102T T111C T113C', 0),
  ('CG T8A T9A', 0),
  ('CG G80C A81T', 0),
  ('TA A23G G24T A33T T76A T78G C87A A96C T110A T113A', 1),
  ('CG T79A G80C', 0),
  ('CG T32C', 1),
  ('CG A66C', 1),
  ('CG C17A', 1),
  ('CG A53C A54C C55A T56G', 1),
  ('CG A22T', 1),
  ('CG A50C', 1),
  ('CG A77T T78A T79A G80C', 0),
  ('CG A99T T100A A101T A102T', 0),
  ('CG A77T', 1),
  ('TA G24A T30A A70C T76A T86G A96C T112G T113C', 1),
  ('CG T79G G80T A81C T82G', 0),
  ('CG G24A', 1),
  ('TA A23G G24T A33T A70C T76A T84A C87A T104A T110A T113A', 1),
  ('CG A77C T78G T79G G80T', 0),
  ('CG C87A A88C C89A A90C', 1),
  ('CG T125G', 1),
  ('CG A11T', 0),
  ('CG C68T', 0),
  ('CG A44C T45G', 1),
  ('CG A58G', 1),
  ('CG A11T T12A G13C C14G', 0),
  ('TG A70C T76A T84A C87A', 1),
  ('CG A34C T35C A36G T38C A40G T42C A44G T45C A46C A53C A62G A65G A66C', 0),
  ('CG A92C', 1);

Reference for the values: the supplement of paper PMC10201428
